Test: Growth inhibition of human MOLT4 cells after 48 hrs by SRB assay
Format: functional
Conditions: MOLT-4, 48 h
assay.readout: GI50 (µM)

| smiles.notation | unit.string | val |
| --- | --- | --- |
| COc1ccc(-c2nc3ncccn3c2/C=C/C(=O)c2cc(OC)c(OC)c(OC)c2)cc1 | µM | 3.1 |
| COc1ccc(-c2nc3ccccn3c2/C=C/C(=O)c2cc(OC)c(OC)c(OC)c2)cc1 | µM | 32.9 |
| COc1cc(C(=O)/C=C/c2c(C(F)(F)F)nc3ccccn23)cc(OC)c1OC | µM | 3.73 |
| COc1cc(C(=O)/C=C/c2c(-c3ccc(F)cc3)nc3ncccn23)cc(OC)c1OC | µM | 3.75 |
| COc1cc(C(=O)/C=C/c2c(-c3cccs3)nc3ccccn23)cc(OC)c1OC | µM | 1.77 |
| COc1ccc(C(=O)/C=C/c2c(C(F)(F)F)nc3ccccn23)cc1OC | µM | 1.03 |
| COc1ccc(-c2nc3ccccn3c2/C=C/C(=O)c2cc(OC)c(OC)c(OC)c2)cc1OC | µM | 2.18 |

----------
Test system: MCF7
Test: Cell cycle arrest in human MCF7 cells assessed as accumulation at G0/G1 phase at 4 uM after 24 hrs by propidium iodide staining-based flow cytometry (reference value: 64.04%)
Assay type: functional
Rule: Activity of 90% or more gives met; anything lower gives not met.

| smiles.notation | assay.target | group |
| --- | --- | --- |
| COc1ccc(-c2nc3ccccn3c2/C=C/C(=O)c2cc(OC)c(OC)c(OC)c2)cc1 | MCF7 | not met |
| COc1ccc(C(=O)/C=C/c2c(C(F)(F)F)nc3ccccn23)cc1OC | MCF7 | met |
| COc1cc(C(=O)/C=C/c2c(-c3ccc(F)cc3)nc3ncccn23)cc(OC)c1OC | MCF7 | not met |
| COc1cccc2c1C(=O)c1c(O)c3c(c(O)c1C2=O)C[C@@](O)(C(=O)CO)C[C@@H]3O[C@H]1C[C@H](N)[C@H](O)[C@H](C)O1 | MCF7 | met |
| COc1cc(C(=O)/C=C/c2c(C(F)(F)F)nc3ccccn23)cc(OC)c1OC | MCF7 | met |

----------
Below is a list of entries, each paired with its recorded GI50 value.
System: MDA-MB-231
Experiment: Growth inhibition of human MDA-MB-231 cells after 48 hrs by SRB assay
Type: functional
Conditions: MDA-MB-231, 48 h
assay.readout: GI50 (µM)

| smiles.notation | val |
| --- | --- |
| COc1ccc(-c2nc3ccccn3c2/C=C/C(=O)c2cc(OC)c(OC)c(OC)c2)cc1 | 5.22 |
| COc1cc(C(=O)/C=C/c2c(-c3cccs3)nc3ccccn23)cc(OC)c1OC | 3.08 |
| COc1cc(C(=O)/C=C/c2c(C(F)(F)F)nc3ccccn23)cc(OC)c1OC | 4.59 |
| COc1cc(C(=O)/C=C/c2c(-c3ccc(F)cc3)nc3ncccn23)cc(OC)c1OC | 2.99 |
| COc1ccc(C(=O)/C=C/c2c(C(F)(F)F)nc3ccccn23)cc1OC | 3.06 |
| COc1ccc(-c2nc3ccccn3c2/C=C/C(=O)c2cc(OC)c(OC)c(OC)c2)cc1OC | 3.28 |
| COc1ccc(-c2nc3ncccn3c2/C=C/C(=O)c2cc(OC)c(OC)c(OC)c2)cc1 | 2.73 |
